Data origin, for the record: PubChem BioAssay (NCATS)

# Tested on: NIH3T3
# assay details: Cytotoxic Profiling of Annotated Libraries Using Quantitative High-Throughput Screening (AID 1296008); also: % is scaled to controls: 0 for no effect and ±100 for the full control effect; nearly all actives have a fitted effect of over 60% in size
# experimental context: Five cell lines viability, CellTiter-Glo ATP luminescence, 48-72 h; active compounds read low
Results filed as inconclusive are left out.
quantity: max response (%)

compound=O=C(Nc1ccccc1)N1CCN(c2nc(-c3ccccc3)ns2)CC1 endpoint_result=-11.1
compound=COc1cc(NC(=O)c2cc(C3CC3)on2)c(OC)cc1Cl endpoint_result=-5.84
compound="CC12CCC(OC3OC(CO)C(O)C(O)C3OC3OC(CO)C(O)C(O)C3O)CC1CCC1C2CCC2(C)/C(=C3/COC(=O)C3)CCC12O (stereo not drawn)" endpoint_result=-1.69
